# method: Tmax in SCID mouse at 10 mg/kg, po
# Format: ADME, organism-based
# Design: dose 10 mg/kg, route oral
# protocol-conditions: in vivo
observed-property: Tmax (h)
Record the value in h, omitting the unit from your answer.

Input: Param item = COc1c(Nc2ncc(Cl)c(N[C@H]3[C@@H](C(N)=O)[C@@H]4C=C[C@H]3C4)n2)ccc2c1CC[C@@H](N1CCOCC1)CC2 ; retrieve measured Tmax.
Output: 1

* * *

# experimental-target: ALK tyrosine kinase receptor (Homo sapiens)
# Sequence (Q9UM73 whole entry, the tested form may be a part): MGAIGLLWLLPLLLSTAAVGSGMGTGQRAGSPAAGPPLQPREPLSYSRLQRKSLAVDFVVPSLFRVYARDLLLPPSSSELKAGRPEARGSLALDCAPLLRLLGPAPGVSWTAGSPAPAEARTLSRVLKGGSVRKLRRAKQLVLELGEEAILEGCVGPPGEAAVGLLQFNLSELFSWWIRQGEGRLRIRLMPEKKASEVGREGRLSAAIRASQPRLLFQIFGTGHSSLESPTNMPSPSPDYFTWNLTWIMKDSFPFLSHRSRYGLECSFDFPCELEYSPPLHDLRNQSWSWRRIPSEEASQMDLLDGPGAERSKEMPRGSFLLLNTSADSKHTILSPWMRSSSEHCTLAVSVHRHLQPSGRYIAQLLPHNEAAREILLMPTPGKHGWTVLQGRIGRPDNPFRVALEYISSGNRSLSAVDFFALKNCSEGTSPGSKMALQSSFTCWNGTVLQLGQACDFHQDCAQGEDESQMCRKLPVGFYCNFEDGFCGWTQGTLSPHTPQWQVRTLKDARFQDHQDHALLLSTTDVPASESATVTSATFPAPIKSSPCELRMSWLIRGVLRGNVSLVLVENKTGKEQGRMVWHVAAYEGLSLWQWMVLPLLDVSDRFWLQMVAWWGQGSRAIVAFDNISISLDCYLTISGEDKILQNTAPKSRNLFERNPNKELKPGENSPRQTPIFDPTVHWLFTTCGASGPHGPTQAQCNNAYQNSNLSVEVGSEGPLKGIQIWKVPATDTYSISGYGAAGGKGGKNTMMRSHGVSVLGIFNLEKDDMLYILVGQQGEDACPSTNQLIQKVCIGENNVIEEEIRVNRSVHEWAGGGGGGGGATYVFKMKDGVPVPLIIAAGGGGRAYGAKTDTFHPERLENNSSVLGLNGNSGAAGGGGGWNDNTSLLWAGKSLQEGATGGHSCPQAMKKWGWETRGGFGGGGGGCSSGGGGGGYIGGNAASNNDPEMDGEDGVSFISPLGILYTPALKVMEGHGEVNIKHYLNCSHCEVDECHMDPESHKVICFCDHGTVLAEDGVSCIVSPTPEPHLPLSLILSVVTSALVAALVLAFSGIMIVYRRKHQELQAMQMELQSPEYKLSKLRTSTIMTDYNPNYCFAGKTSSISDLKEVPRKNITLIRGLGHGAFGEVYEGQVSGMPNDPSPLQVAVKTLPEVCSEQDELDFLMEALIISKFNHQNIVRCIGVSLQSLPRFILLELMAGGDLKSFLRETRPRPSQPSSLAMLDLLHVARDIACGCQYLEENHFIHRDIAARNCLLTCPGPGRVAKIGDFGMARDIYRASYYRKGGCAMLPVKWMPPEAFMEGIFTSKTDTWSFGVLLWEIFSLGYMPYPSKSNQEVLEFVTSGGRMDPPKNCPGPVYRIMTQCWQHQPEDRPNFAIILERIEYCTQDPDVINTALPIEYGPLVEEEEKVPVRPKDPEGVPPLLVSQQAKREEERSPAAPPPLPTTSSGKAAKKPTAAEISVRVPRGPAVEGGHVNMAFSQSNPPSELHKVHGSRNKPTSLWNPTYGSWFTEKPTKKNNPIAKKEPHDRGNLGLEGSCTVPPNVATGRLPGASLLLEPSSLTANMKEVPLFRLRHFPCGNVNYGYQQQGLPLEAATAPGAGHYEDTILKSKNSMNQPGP
# method: Inhibition of human ALK cytoplasmic domain expressed in baculovirus using GST-PLCgamma as substrate preincubated for 15 mins before substrate addition measured after 1 hr by time resolved fluorescence assay
Field: pIC50. Provide a value for each of the molecules that follow.
// pIC50: -log10(molar conc.)

Input: Param item = COc1c(Nc2ncc(Cl)c(N[C@H]3[C@@H](C(N)=O)[C@@H]4C=C[C@H]3C4)n2)ccc2c1CC[C@H](N1CCOCC1)CC2 ; retrieve measured pIC50.
Output: 7.46

Input: Similarly, COc1c(Nc2ncc(Cl)c(N[C@H]3[C@@H](C(N)=O)[C@@H]4C=C[C@H]3C4)n2)ccc2c1CC[C@@H](N1CCOCC1)CC2 ?
Output: 8.72

* * *

# method: Half life in SCID mouse at 10 mg/kg, po
# Format: ADME, organism-based
# Design: dose 10 mg/kg, route oral
# protocol-conditions: in vivo
observed-property: half-life (h)
Record the value in h, omitting the unit from your answer.

Input: Param item = COc1c(Nc2ncc(Cl)c(N[C@H]3[C@@H](C(N)=O)[C@@H]4C=C[C@H]3C4)n2)ccc2c1CC[C@@H](N1CCOCC1)CC2 ; retrieve measured half-life.
Output: 1.8

* * *

# experimental-target: Protein-tyrosine kinase 6 (Homo sapiens, UniProt Q13882)
# Sequence (Q13882 whole entry): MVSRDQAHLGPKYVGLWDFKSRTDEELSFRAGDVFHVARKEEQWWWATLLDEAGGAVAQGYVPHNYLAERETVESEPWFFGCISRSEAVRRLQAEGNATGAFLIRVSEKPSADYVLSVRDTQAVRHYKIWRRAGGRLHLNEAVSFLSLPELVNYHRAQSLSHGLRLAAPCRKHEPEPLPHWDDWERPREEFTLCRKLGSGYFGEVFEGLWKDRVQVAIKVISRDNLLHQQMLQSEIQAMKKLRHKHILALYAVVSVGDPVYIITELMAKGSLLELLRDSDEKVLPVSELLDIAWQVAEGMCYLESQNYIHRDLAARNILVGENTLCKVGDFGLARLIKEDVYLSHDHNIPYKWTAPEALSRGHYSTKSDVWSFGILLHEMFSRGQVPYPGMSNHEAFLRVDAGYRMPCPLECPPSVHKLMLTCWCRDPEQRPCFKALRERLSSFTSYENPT
observed-property: IC50 (nM)
Record the value in nM, omitting the unit from your answer.

Input: Record COc1c(Nc2ncc(Cl)c(N[C@H]3[C@@H](C(N)=O)[C@@H]4C=C[C@H]3C4)n2)ccc2c1CC[C@@H](N1CCOCC1)CC2 : what is its IC50 with Protein-tyrosine kinase 6 (Homo sapiens, UniProt Q13882)?
Output: 73

* * *

# method: Drug level in SCID mouse tumor xenografted with human KARPAS299 cells expressing NPM-ALK at 30 mg/kg, po after 24 hrs by LC-MS/MS analysis
# Format: ADME, organism-based, Neoplasm, KARPAS-299
# Design: dose 30 mg/kg, route oral
# protocol-conditions: read-out: Drug uptake
observed-property: concentration at 24 h

Input: Param item = COc1c(Nc2ncc(Cl)c(N[C@H]3[C@@H](C(N)=O)[C@@H]4C=C[C@H]3C4)n2)ccc2c1CC[C@@H](N1CCOCC1)CC2 ; retrieve measured concentration at 24 h.
Output: 100 ng/g
